# target_under_test: 5-hydroxytryptamine receptor 1B (Rattus norvegicus, UniProt P28564)
# Sequence (P28564 whole entry): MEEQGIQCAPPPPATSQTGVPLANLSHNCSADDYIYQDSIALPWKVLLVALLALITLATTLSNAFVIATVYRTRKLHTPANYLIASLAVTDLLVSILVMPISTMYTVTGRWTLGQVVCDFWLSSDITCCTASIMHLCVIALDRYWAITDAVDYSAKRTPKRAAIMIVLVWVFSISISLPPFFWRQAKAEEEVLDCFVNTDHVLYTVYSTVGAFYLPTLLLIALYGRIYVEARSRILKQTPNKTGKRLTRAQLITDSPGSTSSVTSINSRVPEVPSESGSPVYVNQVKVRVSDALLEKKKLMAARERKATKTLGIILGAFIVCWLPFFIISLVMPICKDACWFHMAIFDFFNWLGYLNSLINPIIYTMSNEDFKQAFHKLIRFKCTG
# procedure_summary: Displacement of [125I]CYP from rat cerebral cortex 5HT1B receptor in presence of 30 uM propranolol
# Format: tissue-based

input_smiles	IC50
Nn1c(CCCCN2CCN(c3ccc4ccccc4n3)CC2)nc2c(c1=O)CCCC2	> 1 µM

---

# procedure_summary: Drug level in Sprague-Dawley rat brain at 3 mg/kg, po after 2 hrs by HPLC analysis
# Type: ADME, organism-based
# Design: dose 3 mg/kg, route oral
# condition_context: read-out: Drug uptake
measurement_type: concentration at 2 h (nM)

input_smiles	quantity_unit	recorded_measurement
CC(=O)N1CCc2c(sc3nc(CCCCN4CCN(c5ccc6ccccc6n5)CC4)n(N)c(=O)c23)C1	nM	15.1
Nn1c(CCCCN2CCN(c3ccc4ccccc4n3)CC2)nc2c(c1=O)CCCC2	nM	160
Nn1c(SCCCN2CCN(c3ccc4ccccc4n3)CC2)nc2c(c1=O)CCCC2	nM	63.1
Nn1c(CCCCN2CCN(c3ccc4ccccc4n3)CC2)nc2ccccc2c1=O	nM	685
CC(=O)N1CCc2c(sc3nc(SCCCN4CCN(c5ccc6ccccc6n5)CC4)n(N)c(=O)c23)C1	nM	18.7

Values from ChEMBL document CHEMBL1275331
